Test: self-splicing fitness, log relative to wild type (ln ratio); higher = more splicing; Tetrahymena group I intron in knt gene, E. coli kanamycin selection, DiMSum; sequences stand for … in CUCUCU…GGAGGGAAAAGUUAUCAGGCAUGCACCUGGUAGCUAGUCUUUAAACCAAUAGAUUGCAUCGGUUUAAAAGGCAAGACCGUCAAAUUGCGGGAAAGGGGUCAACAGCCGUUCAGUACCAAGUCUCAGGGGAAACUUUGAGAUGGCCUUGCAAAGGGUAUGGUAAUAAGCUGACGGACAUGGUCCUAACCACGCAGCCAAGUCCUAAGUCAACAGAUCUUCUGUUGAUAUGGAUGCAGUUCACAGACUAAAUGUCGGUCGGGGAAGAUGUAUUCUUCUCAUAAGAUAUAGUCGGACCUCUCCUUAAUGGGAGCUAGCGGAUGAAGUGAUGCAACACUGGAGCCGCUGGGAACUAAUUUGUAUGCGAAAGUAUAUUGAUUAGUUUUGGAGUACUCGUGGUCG;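 further: selection with 25 µg/mL kanamycin versus none on LB agar overnight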
Details: 30 °C
Please enter met where self-splicing fitness (ln) is greater than or equal to -2, and not met where it is lower.

// known answers, use as guide
Given UUGCAGCAAUAUUACGAUCU , state whether its self-splicing fitness (ln) is at least -2.
not met

Given UCAGAGCAAUAUUACGGUCG , state whether its self-splicing fitness (ln) is at least -2.
not met

Given ACUGAGCAAUAUUACGCCCG , state whether its self-splicing fitness (ln) is at least -2.
not met

Given GUCCAGCAAUAUUACGAUCU , state whether its self-splicing fitness (ln) is at least -2.
not met

***
Given CUUUAGCAAUAUUACGUCGG , state whether its self-splicing fitness (ln) is at least -2.
met

Given UGGCAGCAAUAUUACGUCAG , state whether its self-splicing fitness (ln) is at least -2.
met

Given GCUGAGCAAUAUUACGCAAG , state whether its self-splicing fitness (ln) is at least -2.
not met

Given UGAGAGCAAUAUUACGCAGC , state whether its self-splicing fitness (ln) is at least -2.
not met
